Provide the reported Kis of each item.
# SYSTEM_TESTED: UniProt P24666
# EXPERIMENT_DESCRIPTION: Competitive inhibition of human GST-tagged LMW-PTP-B expressed in Escherichia coli JM 109 cells using p-nitrophenyl phosphate as substrate after 15 mins by microplate reader analysis
Numbers only, in µM.

1) O=C(O)CCNC1CCCCC1 | 3300
2) O=c1oc2c(cc1O)oc(=O)c1cc(O)c(O)c(O)c12 | 10.8
3) COC(=O)[C@@H]1[C@H](O)[C@H](C)[C@H](O)[C@H](C)/C=C\C=C(/C)C(=O)Nc2c(C)c(OC(C)=O)c3c(c2O)C(=O)C(C)=C2OCOC(=C23)/C(C)=C/[C@@](C)(O)[C@H](O)[C@@H](C)[C@H]1O | 93.9
4) Nc1nc(N)c(/N=N/c2ccc(S(N)(=O)=O)cc2)c(O)n1 | 128
5) N=C(N)n1c(N)nc2ccccc2c1=O | 1180

Would you mind listing Kis for each of the following molecules?
1. Cc1cccc(C)c1NC(=O)Nc1ccc(S(N)(=O)=O)cc1
2. O=C(/C=C/c1ccc(O)c(O)c1)OC1[C@@H](O)CC(OC(=O)/C=C/c2ccc(O)c(O)c2)(C(=O)O)C[C@@H]1O (stereo partly specified)
3. Cc1c2cc(O)c(=O)cc-2oc2cc(O)c(O)cc12

1760
635
13.5

* * *

# SYSTEM_TESTED: UniProt:P24666
# EXPERIMENT_DESCRIPTION: Competitive inhibition of human GST-tagged LMW-PTP-B expressed in Escherichia coli JM 109 cells using p-nitrophenyl phosphate as substrate after 15 mins by microplate reader analysis
Lab note: compare Kis with 200 µM, writing Fulfilled if less and Not fulfilled if equal or more.

1. CC1=C[C@H](O)[C@@H](O)[C@]2(C)[C@H]3[C@@]4(O)OC[C@]35[C@H]([C@@H](C)[C@H]4O)[C@@H](O)C(=O)O[C@@H]5C[C@@H]12 | Not fulfilled
2. OCC(O)C1OCOC(C(O)CO)C1O (centres undefined) | Not fulfilled
3. CC(C)c1nc2c(=O)n(C)c(=O)n(C)c2[nH]1 | Not fulfilled
4. c1ccc(CSc2nc3c[nH]cnc-3n2)cc1 | Not fulfilled
5. Nc1nc2c[nH]c(N)nc-2n1 | Fulfilled

Could you now consider this next compound?
Could you please tell me whether Kis recorded for "O=C(O)c1nn(-c2ccccc2-c2nnc(O)nc2O)c(=O)[nH]c1=O" is less than 200 µM?
Not fulfilled

* * *

Provide the reported Kis of each item.
# SYSTEM_TESTED: Low molecular weight phosphotyrosine protein phosphatase (Homo sapiens) (UniProt P24666)
# Sequence (P24666 whole entry, looked up): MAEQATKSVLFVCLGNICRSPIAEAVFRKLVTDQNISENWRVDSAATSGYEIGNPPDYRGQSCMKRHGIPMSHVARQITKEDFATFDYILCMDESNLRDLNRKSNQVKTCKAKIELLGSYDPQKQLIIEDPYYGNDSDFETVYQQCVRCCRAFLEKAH
# EXPERIMENT_DESCRIPTION: Competitive inhibition of human GST-tagged LMW-PTP-B expressed in Escherichia coli JM 109 cells using p-nitrophenyl phosphate as substrate after 15 mins by microplate reader analysis
Give bare numbers, in µM.

Sample answers from the record:
1) Nc1nc(N)c(/N=N/c2ccc(SCC(=O)O)cc2)c(O)n1 | 730
2) O=c1cc(-c2ccc(O)cc2)oc2c(O)c(O)c(O)c(O)c12 | 18.8
3) Cc1ncc(COP(=O)(O)O)c(C=O)c1O | 3.73
4) O=C(O)CCCC[C@@H]1SC[C@@H]2NC(=O)N[C@@H]21 | 2330
5) O=Cc1c[nH]c2ncccc12 | 7190

Now examine the next entry.
Briefly, Kis measured for "Cn1c(=O)c2nc(CNc3ccc(C(=O)O)cc3)[nH]c2n(C)c1=O" : 1560

Every entry's value here was drawn from ChEMBL document CHEMBL2434938.
